Test system: A549 NSCLC
Assay: NCI tumour cell line growth inhibition, 48 h
parameterMeasured: TGI (µM)
Write the number in µM without appending the unit.

Task item: Look up TGI: COc1cc2c(cc1OCCCCCN1C(=O)c3cccc4cccc(c34)C1=O)N=C[C@@H]1CCCN1C2=O
Reply: 3.3

Task item: Form field: reported TGI of COc1cc(Nc2cc(O)c3c(=O)cc(-c4ccccc4)oc3c2)cc(OC)c1
Reply: 97.3

Task item: I'd like to know its TGI. The compound in question is CN(C)CCNc1c2c(c(NCCN(C)C)c3c(CN(C)C)c[nH]c13)C(=O)c1ccccc1C2=O
Reply: 9.98
